Listing of recorded Plant response rating, Kochia by entry.
Tested on: kochia
protocolNotes: Test A postemergence
Assay type: in vivo, Bassia scoparia
runConditions: 125 g ai/ha, postemergence, 10 days, visual injury, 0 to 100 scale (0 no effect, 100 complete control)
measuredMetric: Plant response rating, Kochia

| molecule | targetSystem | assayValue |
| --- | --- | --- |
| CC1CN(C(=O)c2cc(-n3cncn3)ccc2F)c2cccc(Cl)c2O1 (centres unmarked) | kochia | 30 |
| CC1CN(C(=O)c2cccc(-n3cncn3)c2)c2cc(F)cc(F)c2O1 (centres unmarked) | kochia | 10 |
| O=C(c1cccc(-n2cncn2)c1)N1CC(C(F)(F)F)Oc2c(Cl)cccc21 (centres unmarked) | kochia | 10 |
| Cc1ccc(C(=O)N2CC(C)Oc3c(Cl)cccc32)cc1-n1cncn1 (centres unmarked) | kochia | 20 |
| Cc1cccc2c1O[C@@H](C)CN2C(=O)c1cc(-n2cncn2)ccc1F | kochia | 10 |
| Cc1cccc2c1O[C@@H](C)CN2C(=O)c1cccc(-n2cncn2)c1F | kochia | 0 |
| C[C@H]1CN(C(=O)c2cccc(-n3cncn3)c2)c2cccc(OC(F)(F)F)c2O1 | kochia | 20 |
| CC1CN(C(=O)c2cccc(-n3cncn3)c2)c2cccc(C3CC3)c2O1 (centres unmarked) | kochia | 0 |
| CCc1ncn(-c2ccc(C)c(C(=O)N3C[C@H](C)Oc4c(Cl)cccc43)c2)n1 | kochia | 90 |
| Cc1ccc(-n2cnc(Br)n2)cc1C(=O)N1C[C@H](C)Oc2c(Cl)cccc21 | kochia | 90 |
| CCc1cccc2c1OC(C)CN2C(=O)c1cccc(-n2cncn2)c1 (centres unmarked) | kochia | 10 |
| CCc1ccc(-n2cncn2)cc1C(=O)N1C[C@H](C)Oc2c(Cl)cccc21 | kochia | 30 |
| Cc1ccc(-n2cnc(C3CC3)n2)cc1C(=O)N1C[C@H](C)Oc2c(Cl)cccc21 | kochia | 70 |
| Cc1cccc2c1O[C@@H](C)CN2C(=O)c1cccc(-n2cnc(C(C)C)n2)c1 | kochia | 80 |

====

Reported Plant response rating, Pigweed, Palmer values for a set of molecules
Tested on: pigweed, palmer
protocolNotes: Test C preemergence
Format: in vivo, Amaranthus palmeri
runConditions: Preemergence, 500 g ai/ha; visual rating after 10 days, 0 to 100 scale (0 no effect, 100 complete control)

| molecule | Plant response rating, Pigweed, Palmer |
| --- | --- |
| Cc1ccc(-n2cnc(C3(C)CC3)n2)cc1C(=O)N1C[C@H](C)Oc2c(Cl)cccc21 | 100 |
| Cc1cc(-n2cnc(C(C)C)n2)cc(C(=O)N2C[C@H](C)Oc3c(Cl)cccc32)c1C | 100 |
| CC(C)c1ncn(-c2ccc([S+]([O-])C(F)(F)F)c(C(=O)N3C[C@H](C)Oc4c(Cl)cccc43)c2)n1 (stereo partly shown) | 0 |
| CC(C)c1ncn(-c2cc3c(c(C(=O)N4C[C@H](C)Oc5c(Cl)cccc54)c2)OCO3)n1 | 100 |
| COc1cc(C(=O)N2C[C@H](C)Oc3c(Cl)cccc32)cc(-n2cnc(C(C)(C)C)n2)c1 | 100 |
| Cc1ccc(-n2cnc(C3(C(F)(F)F)CC3)n2)cc1C(=O)N1C[C@H](C)Oc2c(Cl)cccc21 | 100 |
| Cc1cccc2c1OC(C)CN2C(=O)c1cccc(-n2ncnc2C2CC2)c1 (racemic) | 0 |
| COc1cc(C(=O)N2C[C@H](C)Oc3c(Cl)cccc32)cc(-n2cnc(C)n2)c1 | 100 |
| C[C@H]1CN(C(=O)c2cccc(-c3ncccn3)c2)c2cccc(Cl)c2O1 | 70 |
| C[C@H]1CN(C(=O)c2cc(-n3cnc(C(C)(C)C)n3)cc3c2OCCO3)c2cccc(Cl)c2O1 | 100 |
